Reference source for all entries: the supplement of paper PMC12669032

Test system: Bacteroides thetaiotaomicron
Test: growth AUC relative to DMSO control (median of replicates) (fraction); higher = more growth (less inhibition), active = hit call of the paper
Conditions: 20 µM; 24 h
TEST READOUT: growth AUC

compound=CN(C)C(CSC(N)=O)CSC(N)=O.Cl reported_result="1.06 (inactive)"
compound=CCC(C)(c1ccc(O)cc1)c1ccc(O)cc1 reported_result="0.973 (inactive)"
compound=O=P(Oc1ccccc1)(Oc1ccccc1)Oc1ccccc1 reported_result="0.901 (inactive)"
compound=CN(C)C(CSS(=O)(=O)[O-])CSS(=O)(=O)O.[Na+] reported_result="0.98 (inactive)"
compound="COP(=S)(NC(C)C)Oc1ccc(C)cc1[N+](=O)[O-] (stereo not given)" reported_result="0.964 (inactive)"
compound="CCOP(=S)(Oc1cnc(C(C)(C)C)nc1)OC(C)C (stereo not given)" reported_result="1.01 (inactive)"
compound=Nc1cc(Cl)cc(Cl)c1 reported_result="1.01 (inactive)"
compound=NCCO.O=C(O)c1nc(Cl)ccc1Cl reported_result="1.04 (inactive)"
compound="O=c1oc2ccccc2c(O)c1C1CCCc2ccccc21 (stereo not given)" reported_result="0.796 (active)"
compound=CN(C)NC(=O)CCC(=O)O reported_result="0.998 (inactive)"
compound=Nc1ccncc1 reported_result="0.981 (inactive)"
compound=Fc1ccc(Oc2ccnc3cc(Cl)cc(Cl)c23)cc1 reported_result="0.887 (inactive)"
compound=CCNc1nc(NC(C)C)[nH]c(=O)n1 reported_result="1 (inactive)"
compound=CCOP(=O)(OCC)Oc1ccc(S(C)(=O)=O)cc1 reported_result="0.997 (inactive)"
compound=O.[Br-].[Br-].c1cc[n+]2c(c1)-c1cccc[n+]1CC2 reported_result="1.01 (inactive)"
compound=O=c1ccc(=O)[nH][nH]1 reported_result="1 (inactive)"
compound=CNC(=S)S reported_result="1.02 (inactive)"
compound="OC(Cc1ccccc1Cl)(Cn1[nH]cnc1=S)C1(Cl)CC1 (stereo not given)" reported_result="0.821 (inactive)"
compound=COC(=O)c1cc(Oc2ccc(Cl)cc2Cl)ccc1[N+](=O)[O-] reported_result="0.968 (inactive)"
compound=COCC(=O)N(c1c(C)cccc1C)[C@@H](C)C(=O)OC reported_result="1.04 (inactive)"
